The entries below are paired with their reported MIC.
- Test system: Escherichia coli
- protocol-notes: Inhibition of MATE-type HmrM in norfloxacin-resistant Escherichia coli KAM32 assessed as norfloxacin antibacterial activity by measuring norfloxacin MIC measured for 18 hrs incubation by CLSI based microplate reader analysis
Report the value in µg/mL with no unit label.

CN/C(=N\C#N)NCCCC#Cc1cccc(Cl)c1 = 0.026
CN/C(=N\C#N)NCc1ccccc1-c1cccc(Cl)c1 = 0.04
CN/C(=N\C#N)NCCC/C=C\c1cccc(Cl)c1 = 0.026
CN(C)/C(=N\C#N)N(C)CCCC#Cc1cccc(S(F)(F)(F)(F)F)c1 = 0.014
CN/C(=N\C#N)NCCCCCc1cccc(NS(C)(=O)=O)c1 = 0.04
CN/C(=N\C#N)NCCCC#Cc1cccc(S(F)(F)(F)(F)F)c1 = 0.02

Q: Requested field: MIC. Item: CN/C(=N\C#N)NCc1cccc(-c2cccc(Cl)c2)c1
Ans: 0.04

Q: Please give the measured MIC for this molecule: CN/C(=N\C#N)NCCCCCc1cccc(Br)c1
Ans: 0.048

Q: # input molecule: COCCCCCc1cccc(Cl)c1 ; wanted: its MIC
Ans: 0.056

Q: Given CN(C)/C(=N\C#N)N(C)Cc1ccc(-c2cccc(Cl)c2)cc1 , state its recorded MIC.
Ans: 0.014

Q: State the recorded MIC for this entry: CN/C(=N\C#N)NCCCCCc1cccc(F)c1
Ans: 0.04

Q: I have this molecule here, CN(C)/C(=N\C#N)N(C)CCCCCc1cccc(Cl)c1 , and I need its recorded MIC.
Ans: 0.026

Q: For CN/C(=N\C#N)NCCCNC(=O)c1cccc(Cl)c1 , what is its reported MIC?
Ans: 0.056

Q: Given the molecule CN/C(=N/C#N)NCc1ccc(-c2cccc(Cl)c2)cc1 , what is its reported MIC?
Ans: 0.014

Q: Data request, read-out MIC, for CN/C(=N\C#N)NCCCCCc1cccc(C#N)c1
Ans: 0.032

###

- Test system: Escherichia coli
- protocol-notes: Inhibition of MATE-type HmrM in norfloxacin-resistant Escherichia coli KAM32 assessed as norfloxacin antibacterial activity by measuring norfloxacin MIC measured for 18 hrs incubation by CLSI based microplate reader analysis
Catalogue of compounds with associated MIC

CN(C)/C(=N\C#N)N(C)CCCC#Cc1cccc(Cl)c1 = 0.014 µg/mL

Q: MIC for CN/C(=N\C#N)NCCCCCc1cccc(Cl)c1 ?
Ans: 0.032 µg/mL

Q: Which MIC value belongs to CN/C(=N\C#N)NCCCCCc1cccc(S(F)(F)(F)(F)F)c1 ?
Ans: 0.026 µg/mL

Q: I'd like to know its MIC. The compound in question is CN/C(=N\C#N)NCCC/C=C/c1cccc(Cl)c1
Ans: 0.026 µg/mL

Q: Reported MIC for OCCCCCc1cccc(Cl)c1 : what is it?
Ans: 0.056 µg/mL

Q: What does the record list as MIC for Clc1cccc(CCCCCn2ccnc2)c1 ?
Ans: 0.04 µg/mL

###

Measured Efficacy accompanies every entry in the list below.
- Tested on: Escherichia coli
- protocol-notes: Inhibition of MATE-type HmrM in norfloxacin-resistant Escherichia coli KAM32 assessed as norfloxacin antibacterial activity efficacy at 30 uM measured for 18 hrs incubation by CLSI based microplate reader analysis relative to norfloxacin alone
Output spec: scalar in %, unitless text.

Please review the entries below; each comes with its answer.
CN/C(=N\C#N)NCCCC#Cc1cccc(S(F)(F)(F)(F)F)c1 = 100
OCCCCCc1cccc(Cl)c1 = 0
COCCCCCc1cccc(Cl)c1 = 0
CN/C(=N\C#N)NCCCCCc1cccc(Br)c1 = 19
CN/C(=N\C#N)NCCCCCc1cccc(S(C)(=O)=O)c1 = 38

Q: I'd like to know its Efficacy. The compound in question is CN/C(=N/C#N)NCC#CC#Cc1cccc(Cl)c1
Ans: 0

Q: Reported Efficacy for CN/C(=N\C#N)NCCC[C@@H]1C[C@@H]1c1cccc(Cl)c1 : what is it?
Ans: 57
